Kd values for the binders below.
- assayed.target: Spindlin1/C11orf84 complex (human, UniProt Q9Y657 50-262; Q9BUA3 1-381)
- Sequence (Q9Y657 50-262, chain 1 of 2): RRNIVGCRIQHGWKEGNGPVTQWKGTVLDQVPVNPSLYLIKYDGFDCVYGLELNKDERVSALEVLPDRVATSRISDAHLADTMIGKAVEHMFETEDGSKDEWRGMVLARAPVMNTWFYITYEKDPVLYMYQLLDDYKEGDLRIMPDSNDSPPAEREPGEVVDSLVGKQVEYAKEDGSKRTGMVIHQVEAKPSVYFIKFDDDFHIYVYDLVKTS
- Sequence (Q9BUA3 219-305, chain 2 of 2): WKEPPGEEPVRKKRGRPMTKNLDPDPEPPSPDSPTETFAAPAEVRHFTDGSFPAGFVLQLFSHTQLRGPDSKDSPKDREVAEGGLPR
- assay.details: ITC
Ends that are not written are not given here. Me3 = trimethyl group on lysine (trimethyl-lysine); Me2 = dimethyl group on lysine (dimethyl-lysine)
assay.readout: Kd (nM)

ARTK(Me3)QTARKSTG [H3K4me3 peptide]	213
ARTK(Me3)QTARK(Me2)STG [H3K4me3K9me2 peptide]	42
ARTKQTARKSTG (K9me3) [H3K9me3 peptide]	2880
ARTK(Me3)QTAR(asymmetric Me2)KSTG [H3K4me3R8me2a peptide]	82

Where do these numbers come from? They come from paper PMC7878818.
